Source of measurements: patent US9796672B2

Would you kindly list Mouse liver microsomes, MLM t½ for each of these compounds?
- method_notes: Mouse liver microsome (MLM) stability
- Assay type: in vitro ADME
- experimental_conditions: mouse, microsomes
Answer with a number only, understood to be in min.

Asked: Query: Mouse liver microsomes, MLM t½; subject: COc1cc(CC[C@@H](C)N2Cc3ccc(Cl)cc3C2)ccc1O
Given back: 11

Asked: And what about the compound CC(C)(CCc1ccc(O)c(OC(F)(F)F)c1)N1Cc2cccc(C(=O)O)c2C1 ?
Given back: 617

Asked: Also C[C@H](CCc1ccc(OC(=O)N(C)C)c(OC(F)(F)F)c1)N1Cc2cccc(F)c2C1 ?
Given back: 9

Asked: Lookup CC(C)COc1cc(CCC(C)(C)N2Cc3cccc(C(=O)N4CCOCC4)c3C2)ccc1O
Given back: 9

Asked: Would you mind doing COc1cc(CCC(C)(C)N2Cc3cc4c(cc3C2)OCO4)ccc1OCCO as well?
Given back: 91

Asked: How about this compound: C[C@H](CCc1ccc(OC(=O)N(C)C)c(OC(F)(F)F)c1)N1Cc2ccc(F)cc2C1
Given back: 5

Asked: Moving on to C[C@H](CCc1ccc(O)c(OC(F)(F)F)c1)N1Cc2cc3c(cc2C1)OCO3
Given back: 5

Asked: Can you check CN(C)C(=O)c1cccc2c1CN(C(C)(C)CCc1ccc(O)c(OC(F)(F)F)c1)C2 next?
Given back: 26

Asked: Entry CC(C)COc1cc(CCC(C)(C)N2Cc3cccc(C(=O)N(C)C)c3C2)ccc1O please
Given back: 17

Asked: Same thing, different compound: COc1cc(CCC(C)(C)N2Cc3cccc(C(=O)N(C)CCO)c3C2)ccc1O
Given back: 194

Asked: Also COc1cc(CC[C@@H](C)N2Cc3cccc(F)c3C2)ccc1O , if possible.
Given back: 16

Asked: Follow-up entry: CC(C)Oc1ccc(CCC(C)(C)N2Cc3ccc(F)cc3C2)cc1OC(C)C
Given back: 14

Asked: One more compound: C[C@H](CCc1ccc(F)cc1)N1Cc2cc3c(cc2C1)OCO3
Given back: 5

Asked: Another: C[C@H](CCc1ccc(O)c(OC(C)(C)C)c1)N1Cc2ccc(S(C)(=O)=O)cc2C1
Given back: 31

Asked: And then CC(C)(CCc1ccc(Cl)c(Cl)c1)N1Cc2cccc(N3CCNCC3)c2C1 , what is it?
Given back: 253.79

Asked: Try COc1cccc(CCC(C)(C)N2Cc3ccc(S(C)(=O)=O)cc3C2)c1 next.
Given back: 15.2

Asked: Quick one: CC(C)(CCc1ccc(Cl)cc1)N1Cc2cccc(C(=O)N3CCNCC3)c2C1
Given back: 106.23

Asked: What about COc1cc(CC[C@@H](C)N2Cc3cc(Cl)c(Cl)cc3C2)ccc1O ?
Given back: 21
